Assay: Cytotoxicity (CCK-8 cell viability) and selectivity index
Format: cell-based, human
Conditions: human, HepDE19 cells; cytotoxicity, concentration resulting in death of 50% of host cells
The following molecules are listed with their measured CC50 at 5 days values.
readout-name: CC50 at 5 days

# molecule, readout-name, endpoint-result
rows = [
    ("COC(=O)C1=C(CN2[C@@H]3COC[C@H]2CC2(C3)N=N2)NC(c2nccs2)=N[C@H]1c1ccc(F)cc1Cl", "CC50 at 5 days", "43 µM"),
    ("COC(=O)C1=C(CN2[C@@H]3COC[C@H]2C[C@H](NC(N)=O)C3)NC(c2nccs2)=N[C@H]1c1ccc(F)cc1Cl", "CC50 at 5 days", "46 µM"),
    ("CCOC(=O)C1=C(CN2[C@@H]3COC[C@H]2C[C@H](CC(=O)O)C3)NC(c2nccs2)=N[C@H]1c1ccc(F)c(F)c1Cl", "CC50 at 5 days", "> 100 µM"),
    ("COC(=O)C1=C(CN2[C@@H]3COC[C@H]2C[C@H](CC(=O)O)C3)NC(c2nccs2)=N[C@H]1c1cccc(F)c1Br", "CC50 at 5 days", "> 100 µM"),
    ("COC(=O)C1=C(CN2[C@@H]3C[C@@H](CC(=O)O)C[C@H]2C(F)(F)C3)NC(c2nccs2)=N[C@H]1c1ccc(F)cc1Cl", "CC50 at 5 days", "> 100 µM"),
    ("COC(=O)C1=C(CN2CC3(CNC(C)=O)CC2CO3)NC(c2nccs2)=N[C@H]1c1ccc(F)cc1Cl (stereo partly drawn)", "CC50 at 5 days", "> 100 µM"),
]

* * *

Assay: Cytotoxicity (CCK-8 cell viability) and selectivity index
Type: cell-based, human
Conditions: human, HepDE19 cells; cytotoxicity, concentration resulting in death of 50% of host cells
Known CC50 at 5 days of a selection of molecules

# molecule, comparison-symbol, CC50 at 5 days / µM
records = [
    ("COC(=O)C1=C(CN2C3COCC2c2c(n(C)[nH]c2=O)C3)NC(c2nccs2)=N[C@H]1c1ccc(F)cc1Cl (stereo partly shown)", ">", 100),
    ("CCOC(=O)C1=C(CN2C3COCC2CC(CC(=O)O)C3)NC(c2nccs2)=N[C@H]1c1ccc(F)cc1Cl (stereo partly shown)", "=", 68),
    ("CCOC(=O)C1=C(CN2[C@@H]3COC[C@H]2C[C@H](CC(=O)O)C3)NC(c2nccs2)=N[C@H]1c1ccc(F)c(F)c1Br", "=", 38),
    ("COC(=O)C1=C(CN2C3COCC2c2[nH]ncc23)NC(c2nccs2)=N[C@H]1c1ccc(F)cc1Cl (stereo partly shown)", "=", 43),
]

* * *

Assay: Human microsomal clearance assay
Type: in vitro ADME
Settings: human, 1 μM, pH 7.4
CLh listing for selected molecules.
readout-name: CLh (mL/min/kg)

# molecule, endpoint-result
rows = [
    ("CCOC(=O)C1=C(CN2C3COCC2C(C(=O)O)C3)NC(c2nccs2)=N[C@H]1c1ccc(F)cc1Br (stereo partly shown)", 2.7),
    ("CCOC(=O)C1=C(CN2[C@@H]3C[C@H](CC(=O)O)C[C@H]2C(F)(F)C3)NC(c2nccs2)=N[C@H]1c1ccccc1Br", 1.7),
    ("COC(=O)C1=C(CN2[C@H]3CC[C@]2(C(=O)O)COC3)NC(c2nccs2)=N[C@H]1c1ccc(F)c(F)c1C", 0),
    ("COC(=O)C1=C(CN2[C@H]3C[C@@H](CC(=O)O)C[C@@H]2C(F)(F)C3)NC(c2nccs2)=N[C@H]1c1ccc(F)c(F)c1", 4.6),
    ("COC(=O)C1=C(CN2[C@@H]3COC[C@H]2C[C@H](NS(C)(=O)=O)C3)NC(c2nccs2)=N[C@H]1c1ccc(F)cc1Cl", 6.4),
    ("CCOC(=O)C1=C(CN2[C@@H]3COC[C@H]2C[C@@H](CC(=O)O)C3)NC(c2nccs2)=N[C@H]1c1cccc(F)c1Cl", 2.8),
    ("COC(=O)C1=C(CN2[C@@H]3COC[C@H]2C[C@@H](NC(N)=O)C3)NC(c2nccs2)=N[C@H]1c1ccc(F)cc1Cl", 5.0),
    ("COC(=O)C1=C(CN2C3COCC2CC(CC(=O)O)C3)NC(c2nccs2)=N[C@H]1c1ccc(Cl)c(F)c1 (stereo partly shown)", 5.5),
    ("CCOC(=O)C1=C(CN2[C@@H]3C[C@H](CC(=O)O)C[C@H]2C(F)(F)C3)NC(c2nccs2)=N[C@H]1c1cccc(F)c1Cl", 4.5),
    ("COC(=O)C1=C(CN2C3COCC2CN(S(C)(=O)=O)C3)NC(c2nccs2)=N[C@H]1c1ccc(F)cc1Cl", 9.0),
    ("CCOC(=O)C1=C(CN2[C@@H]3COC[C@H]2C[C@H](CC(=O)O)C3)NC(c2nccs2)=N[C@H]1c1cccc(F)c1F", 1.0),
    ("COC(=O)C1=C(CN2[C@@H]3CC[C@@]2(C(=O)O)COC3)NC(c2nccs2)=N[C@H]1c1ccc(F)cc1Cl", 0),
    ("CCOC(=O)C1=C(CN2[C@@H]3COC[C@H]2C[C@H](CC(=O)O)C3)NC(c2nccs2)=N[C@H]1c1ccc(F)c(F)c1Br", 4.6),
]

* * *

Test: Lyophilisation solubility assay (Lysa)
Assay type: physicochemical
Details: pH 6.5, aqueous buffer, thermodynamic from solid
readout-name: solubility thermodynamic (µg/mL)

# compound, readout-name, comparison-symbol, endpoint-result
data = [
    ("COC(=O)C1=C(CN2[C@H]3COC[C@@H]2[C@H](CC(=O)O)C3)NC(c2nccs2)=N[C@H]1c1ccc(F)cc1Br [Example 64]", "solubility thermodynamic", "=", 660),
    ("CCOC(=O)C1=C(CN2[C@@H]3COC[C@H]2C[C@H](CC(=O)O)C3)NC(c2nccs2)=N[C@H]1c1ccc(F)cc1Br [Example 67]", "solubility thermodynamic", "=", 319),
    ("COC(=O)C1=C(CN2C3COCC2CN(C(=O)CO)C3)NC(c2nccs2)=N[C@H]1c1ccc(F)cc1Br [Example 53]", "solubility thermodynamic", "=", 163),
    ("CCOC(=O)C1=C(CN2[C@@H]3COC[C@H]2C[C@H](CC(=O)O)C3)NC(c2nccs2)=N[C@H]1c1ccccc1Br [Example 77]", "solubility thermodynamic", "=", 491),
    ("COC(=O)C1=C(CN2C3COCC2C(O)[C@H](CC(=O)O)C3)NC(c2nccs2)=N[C@H]1c1ccc(F)cc1Cl (stereo partly shown) [Example 123]", "solubility thermodynamic", ">", 753),
    ("COC(=O)C1=C(CN2C3COCC2CN(C(C)C)C3)NC(c2nccs2)=N[C@H]1c1ccc(F)cc1Cl [Example 13]", "solubility thermodynamic", "=", 313),
    ("COC(=O)C1=C(CN2C3COCC2CC(O)(CO)C3)NC(c2nccs2)=N[C@H]1c1ccc(F)cc1Cl (stereo partly shown) [Example 10]", "solubility thermodynamic", "=", 435),
    ("CCOC(=O)C1=C(CN2C3COCC2C(F)(F)[C@H](CC(=O)O)C3)NC(c2nccs2)=N[C@H]1c1cccc(F)c1Cl (stereo partly shown) [Example 130]", "solubility thermodynamic", "=", 219),
    ("CCOC(=O)C1=C(CN2C3COCC2C(OCC(=O)O)C3)NC(c2nccs2)=N[C@H]1c1ccc(F)cc1Br (mixture of isomers) [Example 50]", "solubility thermodynamic", ">", 724),
    ("COC(=O)C1=C(CN2[C@@H]3C[C@@H](CC(=O)O)C[C@H]2C(F)(F)C3)NC(c2nccs2)=N[C@H]1c1ccc(F)cc1Cl [Example 109]", "solubility thermodynamic", "=", 107),
    ("COC(=O)C1=C(CN2[C@@H]3COC[C@H]2C[C@H](CC(=O)O)C3)NC(c2nccs2)=N[C@H]1c1ccccc1Br [Example 76]", "solubility thermodynamic", ">", 706),
    ("COC(=O)C1=C(CN2C3COCC2C(C(=O)O)C3)NC(c2nccs2)=N[C@H]1c1ccc(F)cc1Cl (stereo partly shown) [Example 6]", "solubility thermodynamic", ">", 665),
    ("CCOC(=O)C1=C(CN2C3COCC2CC(CC(=O)O)C3)NC(c2nccs2)=N[C@H]1c1ccc(F)c(F)c1 (stereo partly shown) [Example 29]", "solubility thermodynamic", ">", 600),
]

* * *

Entries and their solubility thermodynamic values follow.
Assay: Lyophilisation solubility assay (Lysa)
Format: physicochemical
Conditions: pH 6.5, aqueous buffer, thermodynamic from solid

# compound, unit-abbreviation, comparison-symbol, solubility thermodynamic
measured = [
    ("COC(=O)C1=C(CN2[C@H]3COC[C@@H]2[C@@H](F)[C@H](CC(=O)O)C3)NC(c2nccs2)=N[C@H]1c1cccc(F)c1Cl [Example 101]", "µg/mL", "=", 580),
    ("COC(=O)C1=C(CN2[C@@H]3COC[C@H]2C[C@H](CC(=O)O)C3)NC(c2nccs2)=N[C@H]1c1cccc(F)c1Cl [Example 59]", "µg/mL", ">", 732),
    ("COC(=O)C1=C(CN2[C@@H]3CC[C@H]2C[C@@H](O)C3)NC(c2nccs2)=N[C@H]1c1ccc(F)cc1Cl [Example 44]", "µg/mL", ">", 623),
    ("COC(=O)C1=C(CN2[C@@H]3COC[C@H]2C[C@H](CC(=O)O)C3)NC(c2nccs2)=N[C@H]1c1ccc(F)c(F)c1Cl [Example 73]", "µg/mL", ">", 654),
    ("COC(=O)C1=C(CN2C3COCC2C(NC(C)=O)C3)NC(c2nccs2)=N[C@H]1c1ccc(F)cc1Cl (stereo partly shown) [Example 48]", "µg/mL", "=", 100),
    ("CCOC(=O)C1=C(CN2[C@@H]3COC[C@H]2C[C@H](CC(=O)O)C3)NC(c2nccs2)=N[C@H]1c1cccc(F)c1Cl [Example 66]", "µg/mL", "=", 390),
    ("CCOC(=O)C1=C(CN2[C@@H]3COC[C@H]2C[C@H](CC(=O)O)C3)NC(c2nccs2)=N[C@H]1c1ccccc1Cl [Example 72]", "µg/mL", "=", 640),
    ("CCOC(=O)C1=C(CN2[C@H]3COC[C@@H]2[C@@H](F)[C@H](CC(=O)O)C3)NC(c2nccs2)=N[C@H]1c1ccccc1Cl [Example 103]", "µg/mL", "=", 345),
    ("COC(=O)C1=C(CN2C3COCC2CN(C(N)=O)C3)NC(c2nccs2)=N[C@H]1c1ccc(F)cc1Br [Example 54]", "µg/mL", "=", 119),
    ("COC(=O)C1=C(CN2C3CC(F)(F)C2C[C@@](O)(CC(=O)O)C3)NC(c2nccs2)=N[C@H]1c1ccc(F)cc1Cl (single isomer, unassigned) [Example 116]", "µg/mL", "=", 495),
    ("COC(=O)C1=C(CN2[C@@H]3CC[C@@]2(C(=O)O)CC3(F)F)NC(c2nccs2)=N[C@H]1c1ccc(F)cc1Cl [Example 149]", "µg/mL", ">", 665),
    ("CCOC(=O)C1=C(CN2[C@@H]3COC[C@H]2C[C@H](CC(=O)O)C3)NC(c2nccs2)=N[C@H]1c1cccc(F)c1F [Example 75]", "µg/mL", ">", 656),
    ("COC(=O)C1=C(CN2C3COCC2CC(CC(=O)O)C3)NC(c2nccs2)=N[C@H]1c1ccc(F)cc1Br (stereo partly shown) [Example 28]", "µg/mL", ">", 655),
]
